# Target or test system: FGF14:Nav1.6 C-tail complex (Homo sapiens, UniProt Q92915+Q9UQD0)
# Construct: polymerase chain reaction (PCR) amplification of the FGF14 open reading frame (nt 1–855); C-terminal fragment of Nav1.6 (amino acids 1763–1976) fused with CD4ΔC-tail (amino acids 1–395); expressed in transfected cells
# Sequence (Q92915 1-252 isoform Q92915-2): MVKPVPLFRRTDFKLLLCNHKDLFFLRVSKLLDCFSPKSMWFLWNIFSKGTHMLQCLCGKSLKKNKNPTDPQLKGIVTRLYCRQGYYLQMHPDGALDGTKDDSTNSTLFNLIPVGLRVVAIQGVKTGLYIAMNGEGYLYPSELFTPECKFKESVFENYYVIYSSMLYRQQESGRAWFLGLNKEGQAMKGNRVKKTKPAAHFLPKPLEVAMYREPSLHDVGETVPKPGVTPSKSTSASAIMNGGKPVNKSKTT
# Sequence (Q9UQD0 1763-1976 limits assumed): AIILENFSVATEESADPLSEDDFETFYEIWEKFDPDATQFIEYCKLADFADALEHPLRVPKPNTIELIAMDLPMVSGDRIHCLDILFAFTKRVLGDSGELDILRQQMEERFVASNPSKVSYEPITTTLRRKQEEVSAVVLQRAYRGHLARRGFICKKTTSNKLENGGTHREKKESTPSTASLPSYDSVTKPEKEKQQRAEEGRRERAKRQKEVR
# Measurement notes: Split-luciferase complementation assay (LCA) in Clone V double stable HEK293 cells
# Assay type: cell-based
# Experimental setup: CC_NCI screening; LCA luminescence, biological replicate Set 2; normalized to on-plate 0.3% DMSO controls (n=16 per plate)
Where a name gives a salt, the structure may show the parent alone.
Experimental endpoint: Split Luciferase Assay %Lum Set 2

Before answering, review these 8 worked examples.
Q) I would be grateful if you could share the reported Split Luciferase Assay %Lum Set 2 for "CN(C)C(=N)N=C(N)N" .
A) 114.43%

Q) Then COc1cccc2c1C(=O)c1c(O)c3c(c(O)c1C2=O)C[C@@](O)(C(=O)CO)C[C@@H]3O[C@H]1C[C@H](N)[C@@H](O)[C@H](C)O1 [Epirubicin hydrochloride] ?
A) 45.77%

Q) Then CO[C@H]1C[C@@H]2CC[C@@H](C)[C@@](O)(O2)C(=O)C(=O)N2CCCC[C@H]2C(=O)O[C@H]([C@H](C)C[C@@H]2CC[C@@H](OC(=O)C(C)(CO)CO)[C@H](OC)C2)CC(=O)[C@H](C)/C=C(\C)[C@@H](O)[C@@H](OC)C(=O)[C@H](C)C[C@H](C)/C=C/C=C/C=C/1C [TEMSIROLIMUS] ?
A) 83.22%

Q) Then "C=CC(=O)Nc1cc2c(Nc3ccc(F)c(Cl)c3)ncnc2cc1OCCCN1CCOCC1" ?
A) 34.33%

Q) Then "O=C(CCCCCCC(=O)Nc1ccccc1)NO" ?
A) 88.43%

Q) Then CCOC(=O)C1=C(N)Oc2ccc(Br)cc2C1C(C#N)C(=O)OCC (stereo not shown) ?
A) 97.79%

Q) Then Cc1nc(Nc2ncc(C(=O)Nc3c(C)cccc3Cl)s2)cc(N2CCN(CCO)CC2)n1 [Dasatinib] ?
A) 79.06%

Q) Then CN(C)C/C=C/C(=O)Nc1cc2c(Nc3ccc(F)c(Cl)c3)ncnc2cc1O[C@H]1CCOC1 [BIBW2992] ?
A) 94.67%

Now look at this entry.
Q) I would be grateful if you could share the reported Split Luciferase Assay %Lum Set 2 for "FC(F)c1nc2ccccc2n1-c1nc(N2CCOCC2)nc(N2CCOCC2)n1" .
A) 74.90%

* * *

# System: Clone V cells
# Experimental setup: human, 16 h, 30 µM
Y means recorded Toxicity Assay Z-score is -1 or above; N means it is below -1.

Q) Would you say COc1ccc(Cl)cc1[C@]1(F)C(=O)Nc2cc(C(F)(F)F)ccc21 [BMS 204352] shows Toxicity Assay Z-score at minimum -1?
A) Y

Q) Then CCNC(=O)c1noc(-c2cc(C(C)C)c(O)cc2O)c1-c1ccc(CN2CCOCC2)cc1 [NVP AUY922] ?
A) N

Q) Then Nc1nc2nc[nH]c2c(=S)[nH]1 [Thioguanine] ?
A) Y

* * *

# Target or test system: FGF14:Nav1.6 C-tail complex (Homo sapiens, UniProt Q92915+Q9UQD0)
# Construct: polymerase chain reaction (PCR) amplification of the FGF14 open reading frame (nt 1–855); C-terminal fragment of Nav1.6 (amino acids 1763–1976) fused with CD4ΔC-tail (amino acids 1–395); expressed in transfected cells
# Measurement notes: Split-luciferase complementation assay (LCA) in Clone V double stable HEK293 cells
# Assay type: cell-based
# Experimental setup: CC_NCI screening; LCA, biological replicate Set 2; normalized to on-plate 0.3% DMSO controls
Where a name gives a salt, the structure may show the parent alone.
yes (1) means recorded Split Luciferase Assay Z-score Set 2 is 0.4 or above; no (0) means it is below 0.4.

Q) Would you say CCNC(=O)c1noc(-c2cc(C(C)C)c(O)cc2O)c1-c1ccc(CN2CCOCC2)cc1 [NVP AUY922] shows Split Luciferase Assay Z-score Set 2 at minimum 0.4?
A) no (0)

Q) Then CN1CCN(c2ccc3nc(-c4c(N)c5c(F)cccc5[nH]c4=O)[nH]c3c2)CC1 [CHIR 258] ?
A) no (0)

Q) Then COc1cc(Nc2c(C#N)cnc3cc(OCCCN4CCN(C)CC4)c(OC)cc23)c(Cl)cc1Cl [Bosutinib] ?
A) no (0)

Q) Then CC[C@]1(O)C[C@H]2CN(CCc3c([nH]c4ccccc34)[C@@](C(=O)OC)(c3cc4c(cc3OC)N(C=O)[C@H]3[C@@](O)(C(=O)OC)[C@H](OC(C)=O)[C@]5(CC)C=CCN6CC[C@]43[C@@H]65)C2)C1 [Vincristine sulfate] ?
A) yes (1)

Q) Then Cc1cn(-c2cc(NC(=O)c3ccc(C)c(Nc4nccc(-c5cccnc5)n4)c3)cc(C(F)(F)F)c2)cn1 [NILOTINIB] ?
A) yes (1)

***
Q) Would you say O=C(CCBr)N1CCN(C(=O)CCBr)CC1 [Pipobroman] shows Split Luciferase Assay Z-score Set 2 at minimum 0.4?
A) yes (1)

* * *

Each entry below carries its recorded Split Luciferase Assay Z-score Set 1.
# Target or test system: FGF14:Nav1.6 C-tail complex (Homo sapiens, UniProt Q92915+Q9UQD0)
# Construct: polymerase chain reaction (PCR) amplification of the FGF14 open reading frame (nt 1–855); C-terminal fragment of Nav1.6 (amino acids 1763–1976) fused with CD4ΔC-tail (amino acids 1–395); expressed in transfected cells
# Measurement notes: Split-luciferase complementation assay (LCA) in Clone V double stable HEK293 cells
# Assay type: cell-based
# Experimental setup: CC_NCI screening, biological replicate Set 1; normalized to on-plate 0.3% DMSO controls
Where a name gives a salt, the structure may show the parent alone.

Before answering, review these 5 worked examples.
Q) I would be grateful if you could share the reported Split Luciferase Assay Z-score Set 1 for "CC1(C)CNc2cc(NC(=O)c3cccnc3NCc3ccncc3)ccc21" .
A) -1.77

Q) Then "Oc1c2ccccc2c2c3c(cccc13)N=N2" ?
A) 0.99

Q) Then "Cc1[nH]c2ccccc2c1CCNCc1ccc(/C=C/C(=O)NO)cc1" ?
A) -1.99

Q) Then "Cc1nc2c(c(=O)[nH]1)CSCC2" ?
A) -1.11

Q) Then "O=C1NC(=O)/C(=C/c2ccc3c(c2)OCO3)S1" ?
A) -1.38

***
Q) I would be grateful if you could share the reported Split Luciferase Assay Z-score Set 1 for "Cc1c[nH]c(-c2cnc(NCCNc3ccc(C#N)cn3)nc2-c2ccc(Cl)cc2Cl)n1" .
A) -4.98

Q) Then Cc1cc(C(C)Nc2ccccc2)c2nc(N3CCOCC3)cc(=O)n2c1 (stereo not drawn) ?
A) 0.82

Q) Then Nc1ccn([C@@H]2O[C@H](CO)[C@@H](O)C2(F)F)c(=O)n1 [Gemcitabine hydrochloride] ?
A) 0.29

Q) Then "N#Cc1c(O)c2c(-c3ccc(-c4ccccc4O)cc3)csc2[nH]c1=O" ?
A) 1.52

* * *

# Target or test system: FGF14:Nav1.6 C-tail complex (Homo sapiens, UniProt Q92915+Q9UQD0)
# Construct: polymerase chain reaction (PCR) amplification of the FGF14 open reading frame (nt 1–855); C-terminal fragment of Nav1.6 (amino acids 1763–1976) fused with CD4ΔC-tail (amino acids 1–395); expressed in transfected cells
# Measurement notes: Split-luciferase complementation assay (LCA) in Clone V double stable HEK293 cells
# Type: cell-based
# Experimental setup: cell density 1 × 10^4 cells per 384-well; 8 concentrations 0.625-30 µM; read-out: IC50
Experimental endpoint: IC50 (µM)
Give the number; µM is assumed, so skip it.

Q) I would be grateful if you could share the reported IC50 for O=[N+]([O-])/C=C/c1ccc2c(c1)OCO2 [MNS, reference compound] .
A) 3.96

* * *

# Target or test system: FGF14:Nav1.6 C-tail complex (Homo sapiens, UniProt Q92915+Q9UQD0)
# Construct: polymerase chain reaction (PCR) amplification of the FGF14 open reading frame (nt 1–855); C-terminal fragment of Nav1.6 (amino acids 1763–1976) fused with CD4ΔC-tail (amino acids 1–395); expressed in transfected cells
# Measurement notes: Split-luciferase complementation assay (LCA) in Clone V double stable HEK293 cells
# Format: cell-based
# Experimental setup: CC_NCI screening, biological replicate Set 2; normalized to on-plate 0.3% DMSO controls
1 (yes) means recorded Split Luciferase Assay Z-score Set 2 is 0.8 or above; 0 (no) means it is below 0.8.

Q) Would you say "O=C(NCCCNc1nc(Nc2cccc(NC(=O)N3CCCC3)c2)ncc1I)c1cccs1" shows Split Luciferase Assay Z-score Set 2 at minimum 0.8?
A) 0 (no)

Q) Then C[C@@H](Oc1cc(-c2cnn(C3CCNCC3)c2)cnc1N)c1c(Cl)ccc(F)c1Cl [Crizotinib, reference compound] ?
A) 0 (no)

***
Q) Would you say "NC(=O)c1ncn([C@@H]2O[C@H](CO)[C@@H](O)[C@H]2O)c1N" shows Split Luciferase Assay Z-score Set 2 at minimum 0.8?
A) 1 (yes)

Q) Then "Cc1c[nH]c(-c2cnc(NCCNc3ccc(C#N)cn3)nc2-c2ccc(Cl)cc2Cl)n1" ?
A) 0 (no)

Q) Then O=P1(NCCCl)OCCCN1CCCl (centres unmarked) [Ifosfamide] ?
A) 0 (no)

Q) Then CC(=O)O[C@]1(C(C)=O)CC[C@H]2[C@@H]3C=C(C)C4=CC(=O)CC[C@]4(C)[C@H]3CC[C@@]21C [Megestrol acetate] ?
A) 1 (yes)

Q) Then "O=c1[nH]cc(F)c(=O)[nH]1" ?
A) 1 (yes)

Q) Then "COc1cc(O)c2c(c1)[C@H]1O[C@@H]1C[C@H](O)[C@H](O)C(=O)/C=C\C[C@H](C)OC2=O" ?
A) 0 (no)

Q) Then "N.N.O=C([O-])C1(C(=O)[O-])CCC1.[Pt+2]" ?
A) 1 (yes)

Q) Then "COc1ccc2c(c1OC)N=C(NC(=O)c1cccnc1)N1CCN=C21" ?
A) 0 (no)

Q) Then "CC(=O)O[C@@]12CO[C@@H]1C[C@H](O)[C@@]1(C)C(=O)[C@H](O)C3=C(C)[C@@H](OC(=O)[C@H](O)[C@@H](NC(=O)OC(C)(C)C)c4ccccc4)C[C@@](O)([C@@H](OC(=O)c4ccccc4)[C@H]21)C3(C)C" ?
A) 1 (yes)

Q) Then "CS(=O)(=O)c1ccc(C(=O)Nc2ccc(Cl)c(-c3ccccn3)c2)c(Cl)c1" ?
A) 1 (yes)

Q) Then "CC(C)Cn1cnc2c(N)nc3ccccc3c21" ?
A) 1 (yes)

Q) Then "CC(C)[C@H](NS(=O)(=O)c1ccc(-c2ccc(Br)cc2)cc1)C(=O)O" ?
A) 0 (no)

Q) Then "CN(C)c1nc(N(C)C)nc(N(C)C)n1" ?
A) 1 (yes)

Q) Then "O=C1NC(=O)/C(=C/c2ccc3c(c2)OCO3)S1" ?
A) 0 (no)

Q) Then "Cc1nc2sccn2c(=O)c1CCN1CCC(=C(c2ccccc2)c2ccc(F)cc2)CC1" ?
A) 0 (no)
